test: in vitro
Recorded CC50 at 6 h by entry
Please give a number only; it is taken to be in µM.

Answered cases to consult:
- C#CCC(CCN1CCC(O)(c2ccc(Cl)cc2)CC1)C(=O)c1ccc(F)cc1 (centres unmarked): 100
- OC1(c2ccccc2)CCN(CCCC(O)(c2ccccc2)c2ccc3ccccc3n2)CC1 (centres unmarked): 25
- O=C(CCCN1CCC(O)(c2ccccc2)CC1)c1ccc2ccccc2n1: 400

// below: CC50 at 6 h requested for another compound
Prompt line: May I ask what CC50 at 6 h has been recorded for `O=C(CCC[n+]1ccc(-c2ccc(Cl)cc2)cc1)c1ccc(F)cc1` ?
Response line: 500

----------
Measured log10 CC50 at 6 h values are reported for all entries that follow.
test: in vitro
Quick note: numbers are log10 of CC50 at 6 h, with µM as the unit.

// below: answered compounds
* OC1(c2ccc(Cl)cc2)CCN(CCCC2(c3ccc(F)cc3)SCCCS2)CC1 | 1.48
* C=CC(O)(CCCN1CCC(O)(c2ccc(Cl)cc2)CC1)c1ccc(F)cc1 (stereo not drawn) | 2.00
* OC1(c2ccc(Cl)cc2)CCN(CCN(Cc2ccccc2)Cc2ccccc2)CC1 | 1.30
* CC(CCc1ccccc1)N1CCC(O)(c2ccc(Cl)cc2)CC1 (stereo not drawn) | 2.56
* OCC1(c2ccccc2)CCN(CCCC2(c3ccc(F)cc3)OCCO2)CC1 | 2.70

Read the next record carefully.
Prompt line: log10 CC50 at 6 h lookup needed for C=C(CCC[N+]1([O-])CCC(O)(c2ccc(Cl)cc2)CC1)c1ccc(F)cc1 (stereo not drawn) , thanks.
Response line: 2.20

----------
Known CC50 at 6 h of a selection of compounds
test: in vitro
Reply numerically in µM, unit not repeated.

Guide cases for CC50 at 6 h, answers given:
• CC[C@@H]1CSC(CCCN2CCC(O)(c3ccc(Cl)cc3)CC2)(c2ccc(F)cc2)O1 (stereo partly drawn) = 35
• O=C(C#CCN1CCC(O)(c2ccc(Cl)cc2)CC1)c1cccc(-c2ccccc2)c1 = 35
• CC[C@H]1CSC(CCCN2CCC(O)(c3ccc(Cl)cc3)CC2)(c2ccc(F)cc2)O1 (stereo partly drawn) = 40
• OC1(c2ccc(Cl)cc2)CCN(CCCC2(c3ccc(F)cc3)OCCO2)CC1 = 150
• C[C@@H]1SC(CCCN2CCC(O)(c3ccc(Cl)cc3)CC2)(c2ccc(F)cc2)S[C@@H]1C (relative stereo) = 25

Now for another entry.
Prompt line: I am curious: what CC50 at 6 h value has been reported for `OC1(c2ccc(Cl)cc2)CCN(CCC[Si](c2ccccc2)(c2ccccc2)c2ccccc2)CC1` ?
Response line: 15

----------
assay: in vitro; details: african green monkey, cos-7 cells
Listing of recorded CC50 at 4 h by entry.
Entry rule: numbers only, all in µM.

Below are worked cases with known answers.
• OC1(C#CC2(c3ccccc3)CO2)CCN(Cc2ccccc2)CC1 (centres unmarked) = 70
• C=C(CCC[N+]1([O-])CCC(O)(c2ccc(Cl)cc2)CC1)c1ccc(F)cc1 (centres unmarked) = 300
• O=C(/C=C/C[N+]1([O-])CCC(O)(c2ccc(Cl)cc2)CC1)c1ccc(F)cc1 (centres unmarked) = 250
• O=C(C#CCN1CCC(O)(c2ccc(Cl)cc2)CC1)c1ccccc1 = 15

Prompt line: // lookup CC50 at 4 h for `OC1(c2ccc(Cl)cc2)CCN(CCCC2(c3ccc(F)cc3)SCCS2)CC1`
Response line: 45

Reference for the values: patent US5583000A
